# MIC per entry
# Test system: Candida albicans
# experimentalProtocol: Tested in vitro for minimum inhibitory concentration against candida albicans 124
# Assay type: functional

compound	assaySystem	MIC
CN(CCCC#CC(C)(C)C)Cc1cccc2ccccc12	Candida albicans	200 µg/mL
CN(CC#CC(C)(C)C)Cc1cccc2ccccc12	Candida albicans	> 200 µg/mL
CC(C)(C)C#CCCOCc1cccc2ccccc12	Candida albicans	> 200 µg/mL
CC(CC#CC(C)(C)C)N(C)Cc1cccc2ccccc12 (stereo not given)	Candida albicans	> 200 µg/mL
CN(CCC#CC(C)(C)c1ccccc1)Cc1cccc2ccccc12	Candida albicans	12.5 µg/mL

Could you now look at the following compound, please?
Would you kindly share the measured MIC for `CCN(Cc1cccc2ccccc12)C(=O)OCCC#CC(C)(C)C` ? > 200 µg/mL

###

# Tested on: Candida albicans
# experimentalProtocol: Tested in vitro for minimum inhibitory concentration against candida albicans 124
# Assay type: functional
measuredAttribute: MIC (µg/mL)
Provide only the numeric value, understood in µg/mL.

// solved cases for MIC follow
itemSmiles	assaySystem	reportedResult
CCCC(C)(C)C#CCCN(C)Cc1cccc2ccccc12	Candida albicans	25
CN(CCC#CC(C)(C)C)Cc1cccc2ccccc12	Candida albicans	50
CCC(C)(C)C#CCCN(C)Cc1cccc2ccccc12	Candida albicans	50

Which MIC value belongs to `CN(C/C=C/C#CC(C)(C)C)Cc1cccc2ccccc12` ? 25

###

# System: Candida albicans
# experimentalProtocol: Tested in vitro for minimum inhibitory concentration against candida albicans 124
# Type: functional
Listed compounds paired with reported MIC
Record the value in µg/mL, omitting the unit from your answer.

The examples below pair each entry with its known result.
itemSmiles	MIC / µg/mL
CN(CCC#CC(C)(C)C)CCc1cccc2ccccc12	200
CN(CC#CC(C)(C)C)CCc1cccc2ccccc12	100

If you can, please state the reported MIC value of `CCN(CCC#CC(C)(C)C)Cc1cccc2ccccc12` . 200
